- Tested target: T1, SARS-COV-2 RBD (SARS-COV-2, UniProt P0DTC2 319-539)
- T1 construct: also called WT RBD
- Experimental protocol: ELISA, RBD coated on plate
# note: exactly 2 ng/mL is not below, so it is FALSE; use TRUE for EC50 strictly under it

C941 (antibody, V domains shown) VH: QVQLVQSGAEVKKPGSSVKVSCKASGGTSRSYPISWVRQAPGQGLEWMGRIIPIVGTANYAQRFQGRVTITADESTGTAYMELSSLRSEDTAVYYCARNRGYSDYGSVYYFDYWGQGTLVTVSS VL: QSVLTQPPSVSGAPGQRVTISCTGSSSNIGAGYDVHWYQQLPGAAPKLLIYRNINRPSGVPDRFSGSKSGTSASLAITGLQADDEADYYCQSYDSSLSGSVFGGGTKLTV ... TRUE

Exam item: Decide: EC50 of C939 (antibody, V domains shown) VH: QVQLVESGGGVVQPGRSLRLSCAASGFTFSSYAMHWVRQAPGKGLESVALISHDGSNKYHADSVKGRLTISRDTSKNTLYLQMDSLRPEDTAVYYCASGLLWFETAGGSGAPDYGMAVWGQGTTVTVSS VL: DIQMTQSPSSLSASVGDRVTITCRASQSISTYLNWYQQKPGRAPKFLIYAASSLQSGVPSRFSGSGSGTDFTLIISGLQPEDFATYFCQQSYNTPLTFGGGTKVEIK strictly below 2 ng/mL?
Marked response: FALSE

Exam item: Please let me know if C943 (antibody, V domains shown) VH: QVQLVESGGGVVQPGRSLRLSCAASGFPFSSFGMHWVRQAPGRGLEWVALILYDGDNKYYADSVKGRFTISRDNSKNTLYLQMNSLRAEDTAVYYCAKDIGGGSSPPFFDYWGQGTLVTVSS VL: SYELTQAPSVSLAPGKTARITCGENNIGSKSVHWYQQKPGQAPVLVIYYDSDRPSGIPERFSGSNSGNTATLTISRVEAGDEADYYCQVWDSSSDHVMFGGGTKLTVL shows EC50 below 2 ng/mL.
Marked response: FALSE

Exam item: Input C1060 (antibody, V domains shown) VH: EVQLVESGGDLVQPGGSLRLSCAASEIIVSRNYMNWVRQAPGKGLEWVSIIYSGGSTFYGDSVKGRFTISRDSSKNTLYLQMHGLRVEDTAIYYCARSYGDYYIDYWGQGTLVTVSS VL: DIQMTQSPSSVSASVGDRVTITCRTSQSISTSLAWYQQKPGKAPKLLIYAASSLQRGVPSRFSGTGSGTDFTLTISSLQPEDFATYYCQQSSSSPPLFTFGPGTKVDIK ; condition: EC50 strictly below 2 ng/mL. Does it hold?
Marked response: FALSE

Exam item: Is EC50 of C1050 (antibody, V domains shown) VH: EVQLVESGGGLVQPGRSLRLSCAASGFTFDDYGMHWVRQAPGKGLEWVSGISWNGDSIGYADSVKGRFTISRDNAKTSLYLQMNRLRAEDTALYYCAKAASRSTRIGGAFDIWGQGTMVTVSS VL: QSALTQPASVSGSPGQSITISCTGTSSDVGGYNLVSWYQQHPGKAPKLMIYEGSKRPSGVSNRFSGSKSGNTASLTISGLQAEDEADYYCCSYAYSFTNVFGTGTKVTV strictly below 2 ng/mL?
Marked response: FALSE

Exam item: Confirm or reject: EC50 of C949 (antibody, V domains shown) VH: QVQLQESGPGLVKPLQTLSLTCTVSGGSISNGDYYWSWIRQSPGKGLEWIGNIFYSGATYFNPSLKSRVTLSVDTSKNQFSLKLSSVTAADTAVYYCARVVRVLPAASVDCWGQGTLVTVSS VL: QSALTQPRSVSGSPGQSVPISCTGTSSDVGGYDYVSWYQQHPGKAPKLIIYDVSERPSGVPDRFSGSKSGNTASLTISGLQAEDEATYYCCSYAGTSVMFGGGTKLTVL lies strictly below 2 ng/mL
Marked response: FALSE

Exam item: Lab note: EC50 threshold 2 ng/mL. Does this binder come in strictly under it? C1062 (antibody, V domains shown) VH: EVQLVESGGGLVQPGGSLRLSCAASGFTFSNYDMHWVRQTTGKGLEWVSAIGTAGDTYYPGSVKGRFTMSRENAKNSLYLQMNSLRAGDTAVYYCARGGLQTTTWLFDNWGQGTLVTVSS VL: DIQMTQSPSSLSASVGDRVTITCRASQTISRYLNWYQQKPGKAPKLLIYAASSLQSGVPSRFSGSGSGTDFTLTISSLQPEDFATYYCQQSYTMPPITFGQGTRLEIK
Marked response: FALSE

Exam item: I wonder whether C911 (antibody, V domains shown) VH: QVQLVESGGGVVQPGGSLRLSCAASAFTFSSYAMHWIRQSPGKGLEWVAVISSDGSSKFYADSVKGRFTISRDNSKNTLYLQMNSLSAEDTAVYYCARDLENVLIEVALQDWGQGTLVTVSS VL: DIQMTQSPSSLSASVGDRVTITCRASQSINSYLNWYQQKPGKAPKLLIYAASSLHSGVPSRFSGSGSGTDFTLTISSLQPEDFATYYCQQSYTTLALTFGGGTKVEIK has EC50 below 2 ng/mL. Can you tell?
Marked response: FALSE

Exam item: State whether 2 ng/mL exceeds EC50 recorded for C930 (antibody, V domains shown) VH: EVQLVESGGGLFQPGGSLRLACAASGITVSSNYMSWVRQPPGKGLEWVSVIYAGGSTFYADSVKGRLTISRDNSKNTLYLQINSLRAEDTAVYYCARDLVVWGMDVWGQGTTVTVSS VL: DIQLTQSPSFLSASVGDRVTITCRASQGISSYLAWYQQKPGKAPKLLIYAASTLQSGVPSRFSGSGSGTEFTLTISSLQPEDFATYYCQQLNTYPYTFGQGTKLEIK .
Marked response: TRUE

Exam item: For this binder, is EC50 lower than 2 ng/mL? C937 (antibody, V domains shown) VH: EVQLVESGGGLIQPGGSLRLSCAASELTVSSNYMSWVRQAPGKGLEWVSVIYPGGSTFYADSVKGRFTISRDNSKNTLYLQMNSLRAEDTAVYYCARDLGTGLFDYWGQGTLVTVSS VL: DIQLTQSPSFLSASVGDRVTITCRASQGISSYLAWYQQKPGKAPKLLIYAASTLQSGVPSRFSGSGSGTEFTLTISSLQPEDFATYFCQLLNSNPPGTFGPGTKVDIK
Marked response: TRUE
